Test system: Bacillus subtilis
assay_protocol: cleaved RNA product abundance (RNA/gDNA barcode ratio) relative to median wild-type variant (ratio to wild type); higher = more accumulation of the downstream cleavage product
condition_set: experiment (reporter, strain, medium): exp 4a: truncated aprE reporter, strain BJT201 with 2% xylose (RNase J1 expressed); cleavage site: cggR-gapA (positions -7 to +36 mutated)
attribute_measured: cleaved RNA product abundance

residue_string	quantitative_readout
ACAGACGAAGGAGCCGCAAAGAAGTTATTAAGGGATGAATAAGCCCTCAATATAAATAGCTCTCACTTATTTAAA	0.406
ACAGACGAAGGAGCCGCAAAGAAGTTATTAAGGGAAGAATAATCCCTCCATATAAATATCTCTCACTTATTTAAA	0.202
ACAGACGAAGGAGCCGCAAAGAAGTTATTAAGGGATAACTAATCCCTCAATATAAATATCTCTCACTTATTTAAA	0.57
ACAGACGAAGGAGCCGCAAAGAAGTTATTAAGTGATGAATAATCCCTCCATATAAATATCTCTCACTTATTTAAA	0.104
ACAGACGAAGGAGCCGCAAAGAAGTTATTAAGGGATGAAAAATTCCTCAATATAAATATCTCTCACTTATTTAAA	0.327
ACAGACGAAGGAGCCGCAAAGAAGTTATTAAGCGATGAATACTCCCTCAATATAAATATCTCTCACTTATTTAAA	0.102
ACAGACGAAGGAGCCGCAAAGAAGTTACTAAGGGATGAATAATCCCTCGATATAAATATCTCTCACTTATTTAAA	0.227
ACAGACGAAGGAGCCGCAAAGAAGTTATTAAGGGATGAAGAATCCCCCAATATAAATATCTCTCACTTATTTAAA	0.183
ACAGACGAAGGAGCCGCAAAGAAGTCATTAAGGGACGAATAATCCCTCAATATAAATATCTCTCACTTATTTAAA	0.154
ACAGACGAAGGAGCCGCAAAGAAGTTATAAAGGGATGAATAATCCCTCAATATATATATCTCTCACTTATTTAAA	0.58
ACAGACGAAGGAGCCGCAAAGAAGTTAATAAGGGATGAATAATCCCTCAATATAAATATCTCTCACTTATTTAAA	0.349
ACAGACGAAGGAGCCGCAAAGAAGTTATTAATGGATGAATAATACCTCAATATAAATATCTCTCACTTATTTAAA	0.126
ACAGACGAAGGAGCCGCAAAGAAGTCATTAAGGCATGAATAATCCCTCAATATAAATATCTCTCACTTATTTAAA	0.102
ACAGACGAAGGAGCCGCAAACAATTTATTAAGAGATGAATAATCCCTCAATATAAATATCTCTCACTTATTTAAA	0.128
ACAGACGAAGGAGCCGCAAAGAAGTTATTAAGGTATGAATAATACCTCAATATAAATATCTCTCACTTATTTAAA	1.16

----------
Test system: Bacillus subtilis
assay_protocol: cleaved RNA product abundance (RNA/gDNA barcode ratio) relative to median wild-type variant (ratio to wild type); higher = more accumulation of the downstream cleavage product
condition_set: experiment (reporter, strain, medium): exp 2b: truncated aprE reporter, strain BJT200; cleavage site: cggR-gapA (positions -7 to +36 mutated)

residue_string	cleaved RNA product abundance
ACAGACGAAGGAGCCGCAAAGTAGTTATTAAGAGATGAATAATCCCTCAATATAAATATCTCTCACTTATTTAAA	0.126
ACAGACGAAGGAGCCGCAAAGAAGTTATGAAGGGATGAATAATCCCACAATATAAATATCTCTCACTTATTTAAA	0.138
ACAGACGAAGGAGCCGCAAAGAAGTTATTAAGGTATCAATAATCCCTCAATATAAATATCTCTCACTTATTTAAA	0.106
ACAGACGAAGGAGCCGCAAAGAAGTTCTTAAGGGATGAATAATGCCTCAATATAAATATCTCTCACTTATTTAAA	0.0955
ACAGACGAAGGAGCCGCAAAGAAGTTATTAAGGGATGAATAATCCCACAATATAAATATCTCTCACTTATTTAAA	0.204
ACAGACGAAGGAGCCGCAAAGAAGTTAATAAGGGATGAATAATCCGTCAATATAAATATCTCTCACTTATTTAAA	0.177
ACAGACGAAGGAGCCGCAAAGAAGTTATTAAGGGATGAATAATCCCTAAATATACATATCTCTCACTTATTTAAA	0.498

Reference source: the supplement of paper PMC11780869
